- Target Under Test: SaCas9 (Staphylococcus aureus)
- Sequence (J7RUA5 whole entry): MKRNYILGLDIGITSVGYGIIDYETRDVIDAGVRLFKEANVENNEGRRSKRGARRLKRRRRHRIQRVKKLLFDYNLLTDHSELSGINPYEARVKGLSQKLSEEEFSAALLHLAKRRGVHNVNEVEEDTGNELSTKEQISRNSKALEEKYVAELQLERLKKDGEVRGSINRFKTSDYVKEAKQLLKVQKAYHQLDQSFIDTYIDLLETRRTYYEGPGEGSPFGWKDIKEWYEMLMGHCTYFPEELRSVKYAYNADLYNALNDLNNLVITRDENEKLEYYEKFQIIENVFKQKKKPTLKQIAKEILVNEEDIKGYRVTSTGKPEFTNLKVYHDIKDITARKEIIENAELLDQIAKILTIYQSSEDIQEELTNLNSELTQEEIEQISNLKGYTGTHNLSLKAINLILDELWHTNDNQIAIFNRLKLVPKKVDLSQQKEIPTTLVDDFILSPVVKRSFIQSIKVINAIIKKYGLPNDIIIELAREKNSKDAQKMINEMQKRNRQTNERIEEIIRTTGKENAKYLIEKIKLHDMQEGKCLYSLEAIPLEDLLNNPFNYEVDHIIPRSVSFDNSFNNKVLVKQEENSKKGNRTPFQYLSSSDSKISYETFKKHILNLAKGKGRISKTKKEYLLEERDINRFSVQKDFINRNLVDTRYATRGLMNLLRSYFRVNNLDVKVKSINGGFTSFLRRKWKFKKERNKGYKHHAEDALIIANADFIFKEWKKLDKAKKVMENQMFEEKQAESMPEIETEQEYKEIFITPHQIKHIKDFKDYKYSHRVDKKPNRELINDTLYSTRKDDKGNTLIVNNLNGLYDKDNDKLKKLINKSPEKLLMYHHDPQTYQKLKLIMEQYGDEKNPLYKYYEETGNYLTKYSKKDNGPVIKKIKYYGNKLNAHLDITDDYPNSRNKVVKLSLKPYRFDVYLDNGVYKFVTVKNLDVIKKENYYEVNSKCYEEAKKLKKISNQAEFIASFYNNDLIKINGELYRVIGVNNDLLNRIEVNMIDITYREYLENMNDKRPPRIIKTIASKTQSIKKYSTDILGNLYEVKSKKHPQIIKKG
- Assay: eGFP secondary assay, SaCas9
- Format: cell-based
- Conditions Used: replicate 1
Please assign not met whenever Normalized Inhibition Rep 1 is at or above 40, and met whenever it is below.

# example entries with known answers
{"Molecule": "CCCCn1nnnc1NCc1ccc2c(c1)n(C)c(=O)n2C [Compound D664-0047]", "Category Label": "met"}
{"Molecule": "Cc1nc2nc(N(CCOc3ccccc3)S(=O)(=O)c3ccccc3)nn2c(C)c1Cl [D513-3628]", "Category Label": "not met"}
{"Molecule": "CCOc1ccc(NC(=O)c2cc(=O)c3cc(CC)ccc3o2)c2cccnc12 [Compound D656-0061]", "Category Label": "met"}

Qu. Answer whether the molecule Cc1ccc(C)c(Nc2nc(C(N)=O)c(NC(=O)c3ccc(C)nc3Cl)s2)c1 [D686-0195] has Normalized Inhibition Rep 1 strictly less than 40
Ans. met

Qu. Answer whether the molecule CC(C)Cc1nnc2sc(-c3c[nH]c4ccccc34)nn12 [D727-0768] has Normalized Inhibition Rep 1 strictly less than 40
Ans. met

Qu. Answer whether the molecule O=C(NCCCN1CCC(N2CCCCC2)CC1)C1=Cc2sc3c(c2CS1)CCCC3 [E722-2652] has Normalized Inhibition Rep 1 strictly less than 40
Ans. not met

Qu. Answer whether the molecule CCCCN(CC)C(=O)C1CCCN(c2ccc(-c3ccccc3)nn2)C1 (stereo not shown) [Compound F305-0030] has Normalized Inhibition Rep 1 strictly less than 40
Ans. not met

Qu. Answer whether the molecule Cc1nn(-c2ccccc2)c(C)c1CCc1nnc2sc(-c3ccc(N(C)C)cc3)nn12 [D727-0717] has Normalized Inhibition Rep 1 strictly less than 40
Ans. met

Ref: patent US20240115557A1
